Collected kcat values appear next to each entry.
Substrate: CC(=O)Oc1ccc2ccccc2c1
Test Details: esterase activity assay
Assay type: biochemical, Geobacillus stearothermophilus
Details: 2-naphthyl acetate 1-20 mM in isopropanol, citrate phosphate buffer pH 7
Answer format: numeric, s⁻¹ implied, no suffix.

Reference set (2 entries):
Protein	Measured
Axe2 (Geobacillus stearothermophilus) (protein) MKIGSGEKLLFIGDSITDCGRARPEGEGSFGALGTGYVAYVVGLLQAVYPELGIRVVNKGISGNTVRDLKARWEEDVIAQKPDWVSIMIGINDVWRQYDLPFMKEKHVYLDEYEATLRSLVLETKPLVKGIILMTPFYIEGNEQDPMRRTMDQYGRVVKQIAEETNSLFVDTQAAFNEVLKTLYPAALAWDRVHPSVAGHMILARAFLREIGFEWVRSR	720
Axe2 (Geobacillus stearothermophilus; W190P/Y184F) (protein) MKIGSGEKLLFIGDSITDCGRARPEGEGSFGALGTGYVAYVVGLLQAVYPELGIRVVNKGISGNTVRDLKARWEEDVIAQKPDWVSIMIGINDVWRQYDLPFMKEKHVYLDEYEATLRSLVLETKPLVKGIILMTPFYIEGNEQDPMRRTMDQYGRVVKQIAEETNSLFVDTQAAFNEVLKTLFPAALAPDRVHPSVAGHMILARAFLREIGFEWVRSR	44

Please turn your attention to the following entry.
# get_value(readout='kcat', item= Axe2 (Geobacillus stearothermophilus; Y184F) (protein) MKIGSGEKLLFIGDSITDCGRARPEGEGSFGALGTGYVAYVVGLLQAVYPELGIRVVNKGISGNTVRDLKARWEEDVIAQKPDWVSIMIGINDVWRQYDLPFMKEKHVYLDEYEATLRSLVLETKPLVKGIILMTPFYIEGNEQDPMRRTMDQYGRVVKQIAEETNSLFVDTQAAFNEVLKTLFPAALAWDRVHPSVAGHMILARAFLREIGFEWVRSR )
36
